- tested_target: ESO157 A7 peptide (…)/HLA-A*02:01 complex on T2 cells (human)
- assay: FACS, peptide-pulsed T2 cells
Record form. Attribute: MFI. Fill in for each entry.
Answers are plain numbers.

{"binder": "phage clone #66, anti-ESO157/HLA-A*02:01 scFv displayed on phage (scFv, V domains shown) VH: EVQLVESGAEVKRPGASVKVSCKASGYTFTSYGISWVRQAPGQGLEWMGRFIPNLNKGNSAHKFEGRVSFTADKFTNTAYMELRGLKSDDTAVYYCARGDYGSDQWGQGTLVTVSS VL: QSVLTQPPSVSGAPGQRVTISCTGSSSNIGAGYDVHWYQQLPGTAPKLLIYGNSNRPSGVPDRFSGSKSGTSASLAITGLQAEDEADYYCQSYDSSLSGSWVFGGGTKLTVLG", "reported_result": 64400}

Fill in MFI for each of the 5 binders listed.
1. phage clone #35, anti-ESO157/HLA-A*02:01 scFv displayed on phage (scFv, V domains shown, also called parental phage clone #35) VH: QVQLVQSGAEVKKPGSSVKVSCKASGDTFSSYSISWVRQAPGQGLEWMGRIIPILGIANYAQKYQGRVTLSADKSTSTSYMELNSLRSEDTAVYYCARDWSYSIDYWGQGTLVTVSS VL: QSVVTQPPSVSAAPGQKVTISCSGSSSNIGNNYVSWYQQLPGTAPKLLIYDNNKRPSGIPDRFSGSKSGTSATLGITGLQTGDEADYYCGTWDSSLSAWVFGGGTKLTVLG
2. phage clone #116, anti-ESO157/HLA-A*02:01 scFv displayed on phage (scFv, V domains shown) VH: QVQLVQSGPEVKKPGASMKVSCKASGYTFTKYGISWVRQAPGQGLEWMGWISADSGKTSYAQNLQGRVSLTIDTSTATAYMELRSLRSDDTAVYYCARDDDSWGQGTLVTVSS VL: QSVLTQPPSVSAAPGQKVTISCSGSSSNIGNNYVSWYQQLPGTAPKLLIYDNNKRPSGIPDRFSGSKSGTSATLGITGLQTGDEADYYCGTWDSSLSAEVFGTGTKVTVLG
3. phage clone #148, anti-ESO157/HLA-A*02:01 scFv displayed on phage (scFv, V domains shown) VH: EVQLVQSGAEVKKPGASVKVSCKASGGTFSSYAISWVRQAPGQGLEWMGGIIPIFGTANYAQKFQGRVTITADKSTSTAYMELSSLRSEDTAVYYCARSYWSWTPYDPWGQGTLVTVSS VL: LPVLTQPPSVSVAPGKTARITCGGNNIGSKSVHWYQQKPGQAPVLVIYYDSDRPSGIPERFSGSNSGNTATLTISRVEAGDEADYYCQVWDSSSDHYVFGTGTKVTVLG
4. phage clone #76, anti-ESO157/HLA-A*02:01 scFv displayed on phage (scFv, V domains shown) VH: EVQLVQSGAEVKKPGSSVKVSCKASGGTFSSYAISWVRQAPGQGLEWMGGIIPIFGTANYAQKFQGRVTITADESTSTAYMELSSLRSEDTAVYYCARYDSYVYDEWGQGTLVTVSS VL: QSVVTQPPSLSGAPGQRVTISCNGSGSNIGAGYDVHWYQQLPGTAPKLLIYGNSNRPSGVPDRFSGSKSGTSASLAITGLQAEDEADYYCQSYDSSLSGWGIFGGGTKLTVLG
5. phage clone #52, anti-ESO157/HLA-A*02:01 scFv displayed on phage (scFv, V domains shown) VH: QVQLVQSGAEVKKPGASVKVSCKASGYTFTSYGISWVRQAPGQGLEWMGWISAYNGNTNYAQKLQGRVTMTTDTSTSTAYMELRSLRSDDTAVYYCARYSGYYAGDSWGQGTLVTVSS VL: QSVLTQPPSVSGAPGQRVTISCTGSSSNIGAGYDVHWYQQLPGTAPKLLIYGDTNRPSGVPDRISGSKSGTSASLAITGLQAEDEADYYCQSYDSNLYTYVFGTGTKVTVLG

Result:
1. 419
2. 14400
3. 62400
4. 6200
5. 9890

Data provenance is patent US20190382504A1.
